- Study target: XPC-RAD23B (Homo sapiens, UniProt Q01831;P54727 1-940;1-409)
- Sequence (Q01831 whole entry, chain 1 of 2): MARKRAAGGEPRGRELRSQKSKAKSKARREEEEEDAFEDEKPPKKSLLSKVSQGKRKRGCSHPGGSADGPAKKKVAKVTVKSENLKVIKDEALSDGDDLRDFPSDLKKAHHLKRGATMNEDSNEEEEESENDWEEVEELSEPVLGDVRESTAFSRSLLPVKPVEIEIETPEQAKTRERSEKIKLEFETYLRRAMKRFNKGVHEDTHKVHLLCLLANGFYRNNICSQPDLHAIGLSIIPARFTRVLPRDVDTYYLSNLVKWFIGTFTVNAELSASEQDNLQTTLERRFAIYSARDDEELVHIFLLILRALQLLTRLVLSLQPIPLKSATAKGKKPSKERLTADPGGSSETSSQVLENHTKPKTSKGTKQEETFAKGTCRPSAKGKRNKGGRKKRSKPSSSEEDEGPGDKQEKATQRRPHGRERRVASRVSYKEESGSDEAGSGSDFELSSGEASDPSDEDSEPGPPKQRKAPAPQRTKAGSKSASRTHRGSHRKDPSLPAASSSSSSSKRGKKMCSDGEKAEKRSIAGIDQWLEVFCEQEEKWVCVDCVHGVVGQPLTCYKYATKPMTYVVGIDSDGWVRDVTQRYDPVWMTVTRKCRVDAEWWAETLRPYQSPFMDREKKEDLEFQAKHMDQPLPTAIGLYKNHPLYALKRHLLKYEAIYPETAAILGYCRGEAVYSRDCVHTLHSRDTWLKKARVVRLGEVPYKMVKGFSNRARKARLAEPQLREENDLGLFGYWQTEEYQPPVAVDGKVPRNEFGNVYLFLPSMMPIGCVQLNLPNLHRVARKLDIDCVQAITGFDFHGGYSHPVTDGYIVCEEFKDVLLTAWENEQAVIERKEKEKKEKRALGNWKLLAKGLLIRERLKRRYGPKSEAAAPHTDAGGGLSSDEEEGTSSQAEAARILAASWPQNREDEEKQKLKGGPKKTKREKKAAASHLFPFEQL
- Sequence (P54727 whole entry, chain 2 of 2): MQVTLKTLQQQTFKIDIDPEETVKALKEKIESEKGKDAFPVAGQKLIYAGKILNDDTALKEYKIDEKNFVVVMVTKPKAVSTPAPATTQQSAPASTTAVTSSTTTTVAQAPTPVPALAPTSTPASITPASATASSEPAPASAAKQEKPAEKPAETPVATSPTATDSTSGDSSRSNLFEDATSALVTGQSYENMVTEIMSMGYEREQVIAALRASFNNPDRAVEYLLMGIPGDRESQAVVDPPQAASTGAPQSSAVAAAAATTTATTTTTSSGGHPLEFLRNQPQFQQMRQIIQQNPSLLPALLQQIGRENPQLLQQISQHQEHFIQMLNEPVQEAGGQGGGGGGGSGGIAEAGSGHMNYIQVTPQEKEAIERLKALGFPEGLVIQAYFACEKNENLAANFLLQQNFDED
- Assay protocol: EMSA; 4 nM DNA, no competitor; EMSA: 50 mM Tris-HCl pH 7.5, 100 mM NaCl, 0.1 mg/ml BSA, 1 mM DTT, 23°C, 45 min; DNA curtains: 10 mM Tris-HCl pH 8.0, 1 mM EDTA, 0.16% BSA, 1 mM DTT, 0-100 mM NaCl, 23°C
- Setup conditions: protein: recombinant; tags: 3xFLAG at N-terminus of XPC; copies: 1;1; label: 5'-FAM on strand 2; blunt
Measured attribute: Kd

## Task Requested read-out: Kd. Entry: undamaged 39 bp DNA (λ-I3_Dup / λ-I3_comp_FAM) (dsDNA, 5'-phosphate on strand 1) DNA 1: TGCATGCGGCCGCTCTTCCCATGGTGCGATCGCTCTTCG DNA 2: CGAAGAGCGATCGCACCATGGGAAGAGCGGCCGCATGCA
## Result ~9 nM
